Taken from PubChem BioAssay (NCI).

Test system: HL-60(TB) leukemia
Test: NCI tumour cell line growth inhibition, 48 h
Outcome Measure: TGI

Recorded results for 3 compounds are shown here.
| Compound | Outcome Measure | Recorded Value |
| --- | --- | --- |
| c1ccc(-c2nn(-c3ccccc3)[n+](-c3cccc4ccccc34)n2)cc1 | TGI | 2.06 µM |
| N#CC1CCN2N=C(c3ccccc3)SC12c1ccccc1 (centres undefined) | TGI | > 100 µM |
| COc1c2c(cc3c(CCc4ccccc4)cc(=O)oc13)CCC(C)(C)O2 | TGI | > 100 µM |

Turning to the following compound.
// fetch TGI given entry COC(=O)Nc1nc2cc3c(cc2s1)OCCO3
> 50 µM

---

Reported GI50 values for a set of compounds
Tested on: MDA-MB-231 breast
Assay: NCI tumour cell line growth inhibition, 48 h

// fetch GI50 given entry NCC1OC(OC2C(CO)OC(OC3C(O)C(N)CC(N)C3OC3OC(CO)C(O)C(O)C3N)C2O)C(N)C(O)C1O (configuration not stated)
> 50 µg/mL

// fetch GI50 given entry N#Cc1c(NC(=O)CN2CCOCC2)sc2c1CCCC2
> 25 µM

// fetch GI50 given entry CC(=O)OC[C@]12CC[C@@H]([C@@H](C)C(N)=O)[C@@H]1[C@H]1CC[C@@H]3[C@@]4(C)CC[C@H](OC(C)=O)C(C)(C)[C@@H]4CC[C@@]3(C)[C@]1(C)CC2
11.8 µM

// fetch GI50 given entry C/C(=C\CCc1ccoc1)CC/C=C(\C)CCCN1CCC(CO)CC1
1.73 µM

---

System: UACC-257 melanoma
Test: NCI tumour cell line growth inhibition, 48 h
Reported TGI values for a set of compounds

| Compound | Measurement Target | TGI |
| --- | --- | --- |
| O=C(O)C1CCCCN1C(=O)c1ccccc1 (stereo not given) | UACC-257 melanoma | > 100 µM |
| Cc1nc2ccccc2c(=O)n1CC(=O)O | UACC-257 melanoma | > 100 µM |
| CC(C)CC(=O)NC(NC(C)C)(C(F)(F)F)C(F)(F)F | UACC-257 melanoma | > 100 µM |
| COc1cc(C2CC(c3cc(C)ccc3C)=NN2c2ccc(S(=O)(=O)NC(=O)NCc3ccccc3)cc2)cc(OC)c1OC (stereo not given) | UACC-257 melanoma | 20.1 µM |

Turning to the following compound.
// fetch TGI given entry CC(C)c1cccc(C(C)C)c1NC(=O)C(=O)C(C(=O)c1ccc2ccccc2c1)C1OC(=O)c2ccccc21 (stereo not given)
> 100 µM

---

Reported TGI values for a set of compounds
Tested on: OVCAR-3 ovarian
Test: NCI tumour cell line growth inhibition, 48 h
Record the value in µM, omitting the unit from your answer.

Recorded results for 3 compounds are shown here.
| Compound | Measurement Target | TGI, µM |
| --- | --- | --- |
| CC(/C=C/c1ccc([N+](=O)[O-])o1)=N/N1CC(CN2CCOCC2)OC1=O (stereo not given) | OVCAR-3 ovarian | 42.8 |
| O=C(c1cccs1)c1c(C(F)(F)F)n([O-])c2ccc(F)cc2[n+]1=O | OVCAR-3 ovarian | 2.35 |
| COC(=O)[C@H](CC(C)C)NC(=O)NC(=O)NC(=O)CI | OVCAR-3 ovarian | 3.51 |

// fetch TGI given entry COc1ccc(C2=C(c3cc(OC)c(OC)c(OC)c3)C(=O)CC2)cc1
0.242
